Test system: 16S rRNA A-site 27-mer RNA model
Test: ESI-FTICR mass spectrometry (MASS) binding to 16S A-site 27-mer RNA model
Set-up: species or system prokaryotic
Details: aminoglycosides 500 nM each, in words
MEASUREMENT_KIND: complex formation with 16S A site RNA

Worked examples follow.
- CN[C@@H]1[C@@H](O)[C@@H](O[C@@H]2[C@@H](O)[C@H](O[C@H]3OC(CN)=CC[C@H]3N)[C@@H](N)C[C@H]2N)OC[C@]1(C)O [sisomicin]: Weaker complexes
- NC[C@@H]1O[C@H](O[C@H]2[C@@H](O)[C@H](O[C@@H]3[C@@H](O)[C@H](N)C[C@H](N)[C@H]3O[C@H]3O[C@H](CO)[C@@H](O)C[C@H]3N)O[C@@H]2CO)[C@H](N)[C@@H](O)[C@@H]1O[C@H]1O[C@H](CO)[C@@H](O)[C@H](O)[C@@H]1O [lividomycin]: High affinity complexes
- NC[C@H]1O[C@H](O[C@H]2[C@H](O)[C@@H](O[C@H]3O[C@H](CO)[C@@H](O)[C@H](N)[C@H]3O)[C@H](N)C[C@@H]2N)[C@H](N)[C@@H](O)[C@@H]1O [bekanamycin]: Weaker complexes
- NC[C@H]1O[C@H](O[C@H]2[C@H](O)[C@@H](O[C@H]3O[C@H](CO)[C@@H](O)[C@H](N)[C@H]3O)[C@H](N)C[C@@H]2N)[C@H](N)C[C@@H]1O [tobramycin]: Weaker complexes

With those in mind, consider the next molecule.
// map NC[C@@H]1O[C@H](O[C@H]2[C@@H](O)[C@H](O[C@@H]3[C@@H](O)[C@H](N)C[C@H](N)[C@H]3O[C@H]3O[C@H](CO)[C@@H](O)[C@H](O)[C@H]3N)O[C@@H]2CO)[C@H](N)[C@@H](O)[C@@H]1O [Paromomycin] to recorded complex formation with 16S A site RNA (system: 16S rRNA A-site 27-mer RNA model)
High affinity complexes

###

Molecular target: HIV TAR RNA structure in the 5'-UTR of luciferase mRNA
Assay: wheat germ lysate translation of luciferase mRNA containing the TAR RNA structure in the 5'-UTR
Conditions: luciferase mRNA containing the TAR RNA structure in the 5'-UTR; read-out: concentration reducing translation by 50%
MEASUREMENT_KIND: IC50 (µM)
Note: unit µM is implicit; provide only the numeric part.

# query: IC50 of entry CNc1ccc(NCCO)c2c1C(=O)c1ccccc1C2=O
50
